- Experiment Notes: Parallel artificial membrane permeability assay (PAMPA)
- Condition Parameters: pH 5
- Excerpt: In parallel with the in vitro antitumor activity testing, the physicochemical properties of the target caged xanthone derivatives were theoretically predicted and experimentally determined in an effort to identify potential druglike compounds prior to the time-consuming and costly development and optimization of derivatives that may ultimately fail in efficacy experiments in vivo. […]
Each entry below lists one item and its recorded Papp at 4 h, 10 mM value.
Express the result in ×10⁻⁶ cm/s but write the number alone.

CC(C)=CCC12OC(C)(C)C3CC(C=C4C(=O)c5c(OCc6cn(CCN(C)C)nn6)cccc5OC431)C2=O (stereo not shown) : 27.9
CC(C)=CCC12OC(C)(C)C3CC(C=C4C(=O)c5c(OCc6cn(CCCN7CCN(C)CC7)nn6)cccc5OC431)C2=O (stereo not shown) : 9.7
CC(C)=CCC12OC(C)(C)C3CC(C=C4C(=O)c5c(OCc6cn(CCN7CCCCC7)nn6)cccc5OC431)C2=O (stereo not shown) : 47.8

Ask: Requested read-out: Papp at 4 h, 10 mM. Entry: CC(C)=CCC12OC(C)(C)C3CC(C=C4C(=O)c5c(O)cccc5OC431)C2=O (stereo not shown) [DDO-6101, reference compound]
Reply: 23.6

----------
- Experiment Notes: in vitro
- Condition Parameters: PAMPA, pH 5
Reported Endpoint: Papp at 4 h, 10 mM (×10⁻⁶ cm/s)
Express the result in ×10⁻⁶ cm/s but write the number alone.

Ask: Requested read-out: Papp at 4 h, 10 mM. Entry: CC(C)=CCC[C@]1(C)C=Cc2c(O)c3c(c(CC=C(C)C)c2O1)O[C@]12C(=C[C@@H]4C[C@H]1C(C)(C)O[C@@]2(C/C=C(/C)C(=O)O)C4=O)C3=O [GA, Gambogic acid, reference compound]
Reply: 0.9

----------
- Experiment Notes: Parallel artificial membrane permeability assay (PAMPA)
- Condition Parameters: pH 6.2
Reported Endpoint: Papp at 4 h, 10 mM
I'd appreciate it if you wrote the number followed by its unit.

The following molecules have reported results that may help.
CC(C)=CCC12OC(C)(C)C3CC(C=C4C(=O)c5c(OCc6cn(CCN7CCN(C)CC7)nn6)cccc5OC431)C2=O (centres unmarked) : 41.5 ×10⁻⁶ cm/s
CC(C)=CCC12OC(C)(C)C3CC(C=C4C(=O)c5c(OCc6cn(CCCN7CCN(C)CC7)nn6)cccc5OC431)C2=O (centres unmarked) : 43.2 ×10⁻⁶ cm/s
CC(C)=CCC12OC(C)(C)C3CC(C=C4C(=O)c5c(OCc6cn(CCN7CCCC7)nn6)cccc5OC431)C2=O (centres unmarked) : 75.4 ×10⁻⁶ cm/s
CC(C)=CCC12OC(C)(C)C3CC(C=C4C(=O)c5c(O)cccc5OC431)C2=O (centres unmarked) [DDO-6101, reference compound] : 25.8 ×10⁻⁶ cm/s
CC(C)=CCC12OC(C)(C)C3CC(C=C4C(=O)c5c(OCc6cn(CCN7CCOCC7)nn6)cccc5OC431)C2=O (centres unmarked) : 63.1 ×10⁻⁶ cm/s
CC(C)=CCC12OC(C)(C)C3CC(C=C4C(=O)c5c(OCc6cn(CCCN7CCCCC7)nn6)cccc5OC431)C2=O (centres unmarked) : 55.1 ×10⁻⁶ cm/s
CC(C)=CCC12OC(C)(C)C3CC(C=C4C(=O)c5c(OCc6cn(CCCN(C)C)nn6)cccc5OC431)C2=O (centres unmarked) : 41.7 ×10⁻⁶ cm/s
CC(C)=CCC12OC(C)(C)C3CC(C=C4C(=O)c5c(OCc6cn(CCN7CCCCC7)nn6)cccc5OC431)C2=O (centres unmarked) : 57.2 ×10⁻⁶ cm/s

Ask: Requested read-out: Papp at 4 h, 10 mM. Entry: CC(C)=CCC12OC(C)(C)C3CC(C=C4C(=O)c5c(OCc6cn(CCCN7CCCC7)nn6)cccc5OC431)C2=O (centres unmarked)
Reply: 52.8 ×10⁻⁶ cm/s

Ask: Requested read-out: Papp at 4 h, 10 mM. Entry: CC(C)=CCC12OC(C)(C)C3CC(C=C4C(=O)c5c(OCc6cn(CCCN7CCOCC7)nn6)cccc5OC431)C2=O (centres unmarked)
Reply: 58 ×10⁻⁶ cm/s

Ask: Requested read-out: Papp at 4 h, 10 mM. Entry: CC(C)=CCC12OC(C)(C)C3CC(C=C4C(=O)c5c(OCc6cn(CCN(C)C)nn6)cccc5OC431)C2=O (centres unmarked)
Reply: 58.8 ×10⁻⁶ cm/s

----------
- Experiment Notes: Parallel artificial membrane permeability assay (PAMPA)
- Condition Parameters: pH 5
Values of Papp at 4 h, 10 mM strictly less than 40 ×10⁻⁶ cm/s map to 1, and values of at least 40 ×10⁻⁶ cm/s map to 0.

CC(C)=CCC12OC(C)(C)C3CC(C=C4C(=O)c5c(OCc6cn(CCCN7CCCCC7)nn6)cccc5OC431)C2=O (stereo not shown) : 1
CC(C)=CCC12OC(C)(C)C3CC(C=C4C(=O)c5c(OCc6cn(CCN7CCOCC7)nn6)cccc5OC431)C2=O (stereo not shown) : 0
CC(C)=CCC12OC(C)(C)C3CC(C=C4C(=O)c5c(OCc6cn(CCN7CCN(C)CC7)nn6)cccc5OC431)C2=O (stereo not shown) : 1
CC(C)=CCC12OC(C)(C)C3CC(C=C4C(=O)c5c(OCc6cn(CCCN(C)C)nn6)cccc5OC431)C2=O (stereo not shown) : 1
CC(C)=CCC12OC(C)(C)C3CC(C=C4C(=O)c5c(OCc6cn(CCCN7CCCC7)nn6)cccc5OC431)C2=O (stereo not shown) : 1

Ask: For CC(C)=CCC12OC(C)(C)C3CC(C=C4C(=O)c5c(OCc6cn(CCN7CCCC7)nn6)cccc5OC431)C2=O (stereo not shown) , is the recorded Papp at 4 h, 10 mM below the cut-off of 40 ×10⁻⁶ cm/s?
Reply: 0

----------
Each entry below lists one item and its recorded Papp at 4 h, 10 mM value.
- Experiment Notes: Parallel artificial membrane permeability assay (PAMPA)
- Condition Parameters: pH 7.4
- Source text: In parallel with the in vitro antitumor activity testing, the physicochemical properties of the target caged xanthone derivatives were theoretically predicted and experimentally determined in an effort to identify potential druglike compounds prior to the time-consuming and costly development and optimization of derivatives that may ultimately fail in efficacy experiments in vivo. […]
Express the result in ×10⁻⁶ cm/s but write the number alone.

CC(C)=CCC12OC(C)(C)C3CC(C=C4C(=O)c5c(OCc6cn(CCCN7CCN(C)CC7)nn6)cccc5OC431)C2=O (stereo not shown) : 64.9
CC(C)=CCC12OC(C)(C)C3CC(C=C4C(=O)c5c(OCc6cn(CCN7CCOCC7)nn6)cccc5OC431)C2=O (stereo not shown) : 74.4
CC(C)=CCC12OC(C)(C)C3CC(C=C4C(=O)c5c(OCc6cn(CCCN(C)C)nn6)cccc5OC431)C2=O (stereo not shown) : 76.1

Ask: Requested read-out: Papp at 4 h, 10 mM. Entry: CC(C)=CCC12OC(C)(C)C3CC(C=C4C(=O)c5c(OCc6cn(CCCN7CCOCC7)nn6)cccc5OC431)C2=O (stereo not shown)
Reply: 72.6

----------
- Experiment Notes: physchem
- Condition Parameters: water, thermodynamic from solid
Reported Endpoint: solubility

Ask: Requested read-out: solubility. Entry: CC(C)=CCC[C@]1(C)C=Cc2c(O)c3c(c(CC=C(C)C)c2O1)O[C@]12C(=C[C@@H]4C[C@H]1C(C)(C)O[C@@]2(C/C=C(/C)C(=O)O)C4=O)C3=O [GA, Gambogic acid, reference compound]
Reply: < 5 µM

----------
- Tested on: human colon carcinoma HCT-116 cell line
- Experiment Notes: MTT antiproliferative assay, HCT116
- Type: cell-based
- Condition Parameters: 72 h
Reported Endpoint: IC50 (nM)
Express the result in nM but write the number alone.

CC(C)=CCC12OC(C)(C)C3CC(C=C4C(=O)c5c(OCc6cn(CCN7CCOCC7)nn6)cccc5OC431)C2=O (stereo not drawn) : 280
CC(C)=CCC12OC(C)(C)C3CC(C=C4C(=O)c5c(OCc6cn(CCCN7CCCCC7)nn6)cccc5OC431)C2=O (stereo not drawn) : 1390
CC(C)=CCC12OC(C)(C)C3CC(C=C4C(=O)c5c(OCc6cn(CCN7CCCC7)nn6)cccc5OC431)C2=O (stereo not drawn) : 980
CC(C)=CCC12OC(C)(C)C3CC(C=C4C(=O)c5c(OCc6cn(CCCN7CCOCC7)nn6)cccc5OC431)C2=O (stereo not drawn) : 950
CC(C)=CCC12OC(C)(C)C3CC(C=C4C(=O)c5c(OCc6cn(CCN(C)C)nn6)cccc5OC431)C2=O (stereo not drawn) : 1640

Ask: Requested read-out: IC50. Entry: CC(C)=CCC12OC(C)(C)C3CC(C=C4C(=O)c5c(OCc6cn(CCCN7CCN(C)CC7)nn6)cccc5OC431)C2=O (stereo not drawn)
Reply: 1090

Ask: Requested read-out: IC50. Entry: CC(C)=CCC[C@]1(C)C=Cc2c(O)c3c(c(CC=C(C)C)c2O1)O[C@]12C(=C[C@@H]4C[C@H]1C(C)(C)O[C@@]2(C/C=C(/C)C(=O)O)C4=O)C3=O [GA, Gambogic acid, reference compound]
Reply: 340

Ask: Requested read-out: IC50. Entry: CC(C)=CCC12OC(C)(C)C3CC(C=C4C(=O)c5c(OCc6cn(CCN7CCN(C)CC7)nn6)cccc5OC431)C2=O (stereo not drawn)
Reply: 6150

Ask: Requested read-out: IC50. Entry: CC(C)=CCC12OC(C)(C)C3CC(C=C4C(=O)c5c(OCc6cn(CCN7CCCCC7)nn6)cccc5OC431)C2=O (stereo not drawn)
Reply: 2140

Ask: Requested read-out: IC50. Entry: CC(C)=CCC12OC(C)(C)C3CC(C=C4C(=O)c5c(O)cccc5OC431)C2=O (stereo not drawn) [DDO-6101, reference compound]
Reply: 710

Ask: Requested read-out: IC50. Entry: CC(C)=CCC12OC(C)(C)C3CC(C=C4C(=O)c5c(OCc6cn(CCCN(C)C)nn6)cccc5OC431)C2=O (stereo not drawn)
Reply: 2270

Ask: Requested read-out: IC50. Entry: CC(C)=CCC12OC(C)(C)C3CC(C=C4C(=O)c5c(OCc6cn(CCCN7CCCC7)nn6)cccc5OC431)C2=O (stereo not drawn)
Reply: 1020
